test_target: hTRPM8 (transient receptor potential melastatin 8) (Homo sapiens, UniProt Q7Z2W7)
Construct: Full-length
Sequence (Q7Z2W7 whole entry): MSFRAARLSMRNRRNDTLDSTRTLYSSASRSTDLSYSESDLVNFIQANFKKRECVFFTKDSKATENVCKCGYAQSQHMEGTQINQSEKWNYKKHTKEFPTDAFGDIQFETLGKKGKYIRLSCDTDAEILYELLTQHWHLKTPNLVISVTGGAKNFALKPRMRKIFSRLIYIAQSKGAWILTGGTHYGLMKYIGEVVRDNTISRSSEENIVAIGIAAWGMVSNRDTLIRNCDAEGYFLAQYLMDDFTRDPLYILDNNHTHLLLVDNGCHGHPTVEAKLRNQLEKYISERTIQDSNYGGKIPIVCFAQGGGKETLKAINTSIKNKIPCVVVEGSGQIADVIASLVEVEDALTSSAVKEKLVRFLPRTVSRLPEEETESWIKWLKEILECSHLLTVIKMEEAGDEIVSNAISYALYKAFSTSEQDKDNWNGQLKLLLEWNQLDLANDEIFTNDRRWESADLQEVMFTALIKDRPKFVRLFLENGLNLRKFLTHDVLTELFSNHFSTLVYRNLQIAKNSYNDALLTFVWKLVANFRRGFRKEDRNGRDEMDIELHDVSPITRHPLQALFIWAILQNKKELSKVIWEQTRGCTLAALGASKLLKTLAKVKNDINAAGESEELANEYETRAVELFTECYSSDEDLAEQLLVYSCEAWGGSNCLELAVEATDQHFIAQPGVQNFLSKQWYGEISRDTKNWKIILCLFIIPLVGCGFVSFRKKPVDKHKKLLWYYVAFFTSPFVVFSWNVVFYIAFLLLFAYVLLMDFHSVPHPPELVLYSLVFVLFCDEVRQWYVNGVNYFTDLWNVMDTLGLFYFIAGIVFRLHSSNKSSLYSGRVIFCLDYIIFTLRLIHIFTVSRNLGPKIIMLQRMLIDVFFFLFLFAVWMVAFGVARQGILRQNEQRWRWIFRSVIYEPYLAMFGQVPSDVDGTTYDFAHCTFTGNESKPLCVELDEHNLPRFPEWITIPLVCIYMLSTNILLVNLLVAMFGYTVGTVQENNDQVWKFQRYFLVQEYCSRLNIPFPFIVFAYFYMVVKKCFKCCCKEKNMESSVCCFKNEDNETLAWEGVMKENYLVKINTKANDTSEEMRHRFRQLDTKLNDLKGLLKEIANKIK
protocol_description: whole-cell patch clamp in HEK293T; inhibition of […] menthol-evoked current
property: IC50 (µM)
Please reply with the bare figure in µM and do not write the unit itself.

In: Tell me measured IC50 for `COc1cc(CNC(=O)CCCC/C=C/C(C)C)ccc1O` please.
Out: 39.9
